Record form. Attribute: t1/2. Fill in for each entry.
molecular target: T1, HLA-A*0201 (human); test: iTopia off-rate;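 further: Half-life of peptide complexes with plate-bound HLA-A2, peptides loaded 18 h at 21 C, washed, then held at 37 C over several time points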
T1 construct: also called HLA-A2.1; HLA A2.1
Answers are plain numbers.

The following binders have reported results that may help.
INSERT INTO measurements (binder, observed) VALUES
  ('SQVEELKSS [cdr2 131-139 SQVEELKSS]', 2.42),
  ('ASQQKILSL [cdr2 107-113 ASQQKILSL]', 3.4),
  ('ELYDLRQHF [cdr2 163-171 ELYDLRQHF]', 0.55);

Turning now to a further record.
Form field t1/2, entry FVYDHVFAE [cdr2 171-179 FVYDHVFAE] : 5.5
